# System: Hepatotoxicity
# experiment-summary: FDA HLAED, serum glutamic oxaloacetic transaminase (SGOT) increase
# cond: human
readout-name: SGOT Increase - Index Value

CC(C)(C)NCC(O)c1ccc(O)c(CO)c1 (configuration not stated)    0.1
COCCCC/C(=N\OCCN)c1ccc(C(F)(F)F)cc1    8.9
Nc1nc2c(ncn2COCCO)c(=O)[nH]1    0.9
NCCNCCNCCN    69.4
Nc1ccn([C@H]2CC[C@@H](CO)O2)c(=O)n1    5.7
CNC(=C[N+](=O)[O-])NCCSCc1csc(CN(C)C)n1    3
C[C@]12CC[C@@H]3c4ccc(OC(=O)N(CCCl)CCCl)cc4CC[C@H]3[C@@H]1CC[C@@H]2O    0
CC(c1cc2ccccc2s1)N(O)C(N)=O (configuration not stated)    47.5
CNCCC(Oc1ccc(C(F)(F)F)cc1)c1ccccc1 (configuration not stated)    9.6
FCOC(C(F)(F)F)C(F)(F)F    4.6
N[C@@H](C(=O)N[C@@H]1C(=O)N2C(C(=O)O)=C(Cl)CS[C@H]12)c1ccccc1 [CEFACLOR ANHYDROUS]    6
CC=CC1=C(C(=O)O)N2C(=O)[C@@H](NC(=O)[C@H](N)c3ccc(O)cc3)[C@H]2SC1    0.4
CC(C)c1c(C(=O)Nc2ccccc2)c(-c2ccccc2)c(-c2ccc(F)cc2)n1CC[C@@H](O)C[C@@H](O)CC(=O)O    6.5
Cc1cccc(Nc2ccccc2C(=O)O)c1C    26
COc1cc([C@@H]2c3cc4c(cc3[C@H](O)[C@H]3COC(=O)[C@H]23)OCO4)cc(OC)c1OC    0
CNC(=C[N+](=O)[O-])NCCSCc1ccc(CN(C)C)o1    1.2
CN(C/C=C/C#CC(C)(C)C)Cc1cccc2ccccc12    3.1
C[N+](C)(C)CCO.Cn1c(=O)c2[n-]cnc2n(C)c1=O    0
COCCOC(=O)C1=C(C)NC(C)=C(C(=O)OC(C)C)C1c1cccc([N+](=O)[O-])c1 (configuration not stated)    23.4
CO[C@H]1/C=C/O[C@@]2(C)Oc3c(C)c(O)c4c(c3C2=O)C2=NC3(CCN(CC(C)C)CC3)NC2=C(NC(=O)/C(C)=C\C=C\[C@H](C)[C@H](O)[C@@H](C)[C@@H](O)[C@@H](C)[C@H](OC(C)=O)[C@@H]1C)C4=O    31.8
O=C1CN=C(c2ccccc2)c2cc(Cl)ccc2N1CC(F)(F)F    0
CCn1cc(C(=O)O)c(=O)c2cc(F)c(N3CCNCC3)cc21    5.6
C[C@H]1O[C@H](O[C@H]2[C@H](O)[C@@H](O)[C@@H](O[C@H]3[C@H](O)[C@@H](O)C(O)O[C@@H]3CO)O[C@@H]2CO)[C@H](O)[C@@H](O)[C@@H]1N[C@H]1C=C(CO)[C@@H](O)[C@H](O)[C@H]1O (some centres not stated)    5.2
CCOC(=O)OC(C)OC(=O)[C@@H]1N2C(=O)[C@@H](NC(=O)[C@H](N)c3ccccc3)[C@H]2SC1(C)C (some centres not stated)    0
Fc1ccc([C@@H]2CCNC[C@H]2COc2ccc3c(c2)OCO3)cc1    1.2
Oc1ccc2c3c1O[C@H]1[C@@H](O)CC[C@@]4(O)[C@@H](C2)N(CC2CCC2)CC[C@]314    0
COc1cc(CC2c3c(cc(OC)c(OC)c3OC)CC[N+]2(C)CCCOC(=O)CCC(=O)OCCC[N+]2(C)CCc3cc(OC)c(OC)c(OC)c3C2Cc2cc(OC)c(OC)c(OC)c2)cc(OC)c1OC.[Cl-].[Cl-] (configuration not stated) [DOXACURIUM CHLORIDE]    0
CCc1nn(CCCN2CCN(c3cccc(Cl)c3)CC2)c(=O)n1CCOc1ccccc1    3.6
NCC(CC(=O)O)c1ccc(Cl)cc1 (configuration not stated)    5.4
COC(=O)C1=C(C)NC(C)=C(C(=O)OC(C)C)C1c1cccc2nonc12 (configuration not stated)    0.8
CCC(=O)O[C@H]1CC[C@H]2[C@@H]3CCC4=CC(=O)CC[C@]4(C)[C@H]3CC[C@]12C [TESTOSTERONE PROPIONATE]    4.8
COC(=O)C1=C(C)NC(C)=C(C(=O)OC)C1c1ccccc1[N+](=O)[O-]    0.6
